// provenance: PubChem BioAssay

Quick reference for composite z-score among some molecules
Molecular target: Alpha-bungarotoxin (Bungarus multicinctus) (UniProt P60615)
Sequence (P60615 whole entry, looked up): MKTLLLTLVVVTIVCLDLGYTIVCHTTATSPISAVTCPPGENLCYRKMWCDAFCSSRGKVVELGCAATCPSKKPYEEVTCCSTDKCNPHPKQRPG
Assay: alpha-bungarotoxin binders on microarray, profiling panel, artefact control for SMM control protein annotation, biochemical, small-molecule microarray, Alexa647 label, 635/667 nm fluorescence (AID 1117)
Conditions: alpha-BTX-A647 binding fluorescence, higher = more signal
VALUE TYPE: composite z-score

INSERT INTO assay_data (molecule, recorded_measurement) VALUES
  ('CN(C)CCCNC(=O)[C@@]1(Cc2ccccc2I)c2ccccc2C(=O)N(Cc2ccccc2)[C@H]1c1ccc(CO)cc1', 0.542),
  ('C=CCC(OC(C)=O)[C@@H]1[C@@H](N(Cc2cccc3ccccc23)C(=O)c2cccc3ccccc23)c2cc(OCCCO)ccc2N1C(=O)Cc1ccc2ccccc2c1 (some centres not stated)', -0.424),
  ('C=CCC(OC(C)=O)[C@@H]1[C@@H](N(Cc2cc3ccccc3o2)C(=O)Cc2ccc(OC)cc2)c2cc(OCCCO)ccc2N1C(=O)Cc1ccc(OC)cc1 (some centres not stated)', 0.673),
  ('COC(=O)[C@@]1(CCS(=O)(=O)c2ccccc2)N=C(c2ccc(OCCCO)cc2)O[C@H]1c1ccccc1N=[N+]=[N-]', 2.23),
  ('COc1ccc(C#Cc2ccc3c(c2)[C@]2(C(=O)N3)[C@H](C(=O)Nc3nc4ccccc4s3)[C@H]3C(=O)O[C@H](c4ccccc4)[C@H](c4ccccc4)N3[C@@H]2c2ccc(OCCO)cc2)cc1', 1.75),
  ('Cc1ccccc1C(O)C1C=CC2C(=O)N(c3ccccc3)C(=O)C2N1Nc1ccccc1F (configuration not stated)', 1.83),
  ('COc1ccccc1CN1C(=O)c2ccccc2[C@](Cc2ccccc2I)(C(=O)NCCCN(C)C)[C@@H]1c1ccc(CO)cc1', 0.812);

###

Target: Follistatin-related protein 3 (Homo sapiens) (UniProt O95633)
Sequence (O95633 whole entry, looked up): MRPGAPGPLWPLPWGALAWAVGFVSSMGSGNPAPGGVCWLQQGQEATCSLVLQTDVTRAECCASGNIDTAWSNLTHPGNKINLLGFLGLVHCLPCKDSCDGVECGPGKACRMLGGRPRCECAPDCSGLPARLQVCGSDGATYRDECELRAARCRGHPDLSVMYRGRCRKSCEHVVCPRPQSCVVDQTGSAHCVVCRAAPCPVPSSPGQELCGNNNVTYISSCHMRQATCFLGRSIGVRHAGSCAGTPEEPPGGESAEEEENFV
Assay: FSTL3 binders on small-molecule microarrays, primary screen, biochemical, small-molecule microarray, 635 nm fluorescence (AID 1105);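 note: score merges emission near 667 nm and signal to noise per printed spot across three slides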
Details: FSTL3 binding, higher = more signal
VALUE TYPE: composite z-score

INSERT INTO assay_data (molecule, tested_target, recorded_measurement) VALUES
  ('COc1cccc(C[C@H]2C[C@@H](CO[Si](C(C)C)(C(C)C)C(C)C)N3C(=O)[C@@]4(C(C)=O)O[C@@]23[C@@H]2C(=O)N(C)C(=O)[C@@H]24)c1', 'Follistatin-related protein 3 (Homo sapiens) (UniProt O95633)', 1.17),
  ('CC(C)C(=C=CC[C@@H](O)c1cccc(OCCO)c1)CCO', 'Follistatin-related protein 3 (Homo sapiens) (UniProt O95633)', 0.457),
  ('CCN(CC)c1ccc(N2CC=CC34O[C@@H]5C=CCOC(=O)[C@@H]5[C@H]3C(=O)N(CCO)[C@@H]4C2=O)cc1 (stereo partly drawn)', 'Follistatin-related protein 3 (Homo sapiens) (UniProt O95633)', -0.952),
  ('CC(C)CNC(=O)[C@@H]1c2ccccc2C(=O)N(Cc2ccccc2Cl)[C@H]1c1ccc(CO)cc1', 'Follistatin-related protein 3 (Homo sapiens) (UniProt O95633)', -0.644),
  ('COCCCNC(=O)[C@@H]1c2ccccc2C(=O)N(C2CCCCC2)[C@H]1c1ccc(CO)cc1', 'Follistatin-related protein 3 (Homo sapiens) (UniProt O95633)', -0.849),
  ('CC(C)C[C@@H]1NC(=O)[C@H]2C[C@@H](C(=O)NCCCCCCNC(=O)CS)[C@@H](c3ccc(O)cc3)N2C1=O', 'Follistatin-related protein 3 (Homo sapiens) (UniProt O95633)', 1.03),
  ('CCCCC(=C=CC[C@H](O)c1ccc(OCCO)cc1)C[C@H](O)c1ccccn1', 'Follistatin-related protein 3 (Homo sapiens) (UniProt O95633)', 0.416),
  ('C[C@]1(C(=O)NCC(F)(F)F)c2ccccc2C(=O)N(Cc2ccc(OC(F)(F)F)cc2)[C@H]1c1ccc(CO)cc1', 'Follistatin-related protein 3 (Homo sapiens) (UniProt O95633)', -0.345);
